- tested_system: human muscarinic M3 receptor (Homo sapiens)
- Construct: expressed in transfected cells
- Sequence (P20309 whole entry): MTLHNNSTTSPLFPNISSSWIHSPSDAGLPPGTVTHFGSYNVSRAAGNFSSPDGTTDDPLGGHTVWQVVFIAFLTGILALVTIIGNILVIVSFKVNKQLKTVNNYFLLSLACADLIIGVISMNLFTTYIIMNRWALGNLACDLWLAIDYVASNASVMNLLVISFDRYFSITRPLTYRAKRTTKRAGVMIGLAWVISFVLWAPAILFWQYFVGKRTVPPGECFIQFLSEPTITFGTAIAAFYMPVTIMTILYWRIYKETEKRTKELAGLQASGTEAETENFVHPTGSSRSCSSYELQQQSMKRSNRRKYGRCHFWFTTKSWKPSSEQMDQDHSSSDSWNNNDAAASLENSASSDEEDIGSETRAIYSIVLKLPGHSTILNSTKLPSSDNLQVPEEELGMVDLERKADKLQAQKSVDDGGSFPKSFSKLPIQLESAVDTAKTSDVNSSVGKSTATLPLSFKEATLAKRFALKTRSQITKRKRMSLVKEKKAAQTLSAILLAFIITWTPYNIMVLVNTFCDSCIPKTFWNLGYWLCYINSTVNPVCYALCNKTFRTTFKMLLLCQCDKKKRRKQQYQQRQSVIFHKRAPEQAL
- procedure_summary: Alphascreen Surefire phospho-ERK1/2 functional assay, M3
- Type: cell-based
- run_conditions: CHO, read-out: M3 % Emax cf. ACh
- Procedure: Functional assays were performed using the Alphascreen Surefire phospho-ERK1/2 assay (Crouch & Osmond, Comb. Chem. High Throughput Screen, 2008). […] Plates were incubated for 2 h with gentle agitation in the dark and then read on a PHERAstar plate reader. pEC50 and Emax figures were calculated from the resulting data for each receptor subtype.
Recorded Emax for the following molecules
Unit % implied. Number only.

Previously resolved entries follow.
CCOC(=O)N1CCCN(C2CCC(C#N)(c3ccc(OC)cn3)CC2)CC1 (single isomer, unassigned) [3-19 Isomer 2] : 6
Cc1noc(C2CC2CNC2CCC3(CC2)C(=O)Nc2ccccc23)n1 (single isomer, unassigned) [23-1 Isomer 1] : 8
CCOC(=O)N[C@H]1CCN(C2CCC(C#N)(c3ccc(F)cn3)CC2)C1 (single isomer, unassigned) [1-14 Isomer 2] : 0
CCOC(=O)N[C@H]1CCN(C2CCC3(CC2)C(=O)Nc2ccc(OC)cc23)C1 (single isomer, unassigned) [2-10 isomer 1] : 4
CCOC(=O)N[C@@H]1CCN(C2CCC(C#N)(c3ccccc3)CC2)C1 (single isomer, unassigned) [1-2 Isomer 2] : 1
CCOC(=O)N1CCC2CN(C3CCC(C#N)(c4ccccc4)CC3)CC21 (single isomer, unassigned) [15-1 Isomer 2] : 6

Inquiry: Quick one: Emax of CCOC(=O)N[C@H]1CCN(C2CCC(C#N)(c3cccc(F)c3)CC2)C1 (single isomer, unassigned) [1-3 Isomer 2] ?
Reply text: 1
